Listed molecules paired with reported TGI
System: UO-31 renal
Experiment: NCI tumour cell line growth inhibition, 48 h

Please review the following examples before continuing.
COc1cc(/C=C/c2cc(/C=C/c3ccc(O)c(OC)c3)n(C(=O)Nc3ccccc3Cl)n2)ccc1O ... 1.17 µM
CON(C)C(=O)[C@H]1C[C@@]1(C)CO ... > 100 µM
C=C1[C@H](OCC(C)C)[C@@H](O)[C@@H](OC(=O)c2cccnc2)C(C)(C)/C=C/[C@H](C)[C@H](OC(C)=O)[C@@]2(O)C[C@@](C)(OC(C)=O)[C@H](OC(=O)c3ccccc3)[C@@H]2[C@H]1OC(C)=O ... > 1.24 µM

Q) Supply measured TGI of Cc1cc(=O)oc2c(CNC(CO)C(=O)O)c(O)ccc12 (stereo unspecified) in your reply.
A) > 100 µM

Q) Please supply the value of reported TGI for the item "Oc1c(Cl)cc(Cl)cc1/C=N/Nc1nnc(N/N=C/c2cc(Cl)cc(Cl)c2O)c2ccccc12"
A) > 100 µM

Q) # return recorded TGI for input OCC(O)CNc1ncnc2ccccc12 (stereo unspecified)
A) > 100 µM

Q) Input N#CCC(=O)N/N=C1/C(=O)N(c2cc(Cl)ccc2Cl)C(=O)C(=O)C1c1nc2ccccc2s1 (stereo unspecified) , output reported TGI.
A) > 100 µM

Q) Indicate the recorded TGI value for this molecule: CCOC(=O)C1(C/C=C/CCl)CCCC1=O (stereo unspecified)
A) 39.7 µM

----------
Tested on: LOX IMVI melanoma
Assay: NCI tumour cell line growth inhibition, 48 h
Property name: TGI

Take a look at these entries with their results.
COc1cc2oc(-c3ccccc3)cc(=O)c2c(O)c1C ... > 100 µM
CCN1c2cc(Br)cc3[nH]c(=O)n(c23)CCC1C (stereo unspecified) ... 24.7 µM

Q) Assign TGI to the following record: "N#Cc1ccc(-c2nc3c(N)nc(-c4ccccc4)nc3o2)cc1"
A) > 100 µM

Q) Assign TGI to the following record: "Cc1ccc(Cc2nn(C)c(=O)n2N)cc1"
A) > 100 µM

Q) Give TGI for the following molecule: CC(NCc1c(O)ccc2ccc(=O)oc12)C(=O)O (stereo unspecified)
A) > 100 µM

Q) Supply reported TGI belonging to this molecule: CC(=O)NC(Cc1ccccc1)NC(=O)O (stereo unspecified)
A) > 100 µM

Q) Dear colleague, please send me the reported TGI for "CCOC(=O)Cn1c2ccc(Br)cc2c2nc3ccccc3nc21" when you can.
A) > 100 µM

Q) Return TGI for the following molecule: "O=C1Cc2nc(CO)c(CO)c(CO)c2CO1"
A) > 100 µM

Q) Consider the molecule "O=C(CCc1ccccc1)NS(=O)(=O)c1ccccc1" . State its measured TGI.
A) > 100 µM

Q) For the molecule COc1ccc(C2CC(c3ccc(Nc4ccnc5cc(Cl)ccc45)cc3)=NN2C=O)cc1 (stereo unspecified) , give its reported TGI.
A) 15.6 µM

Q) Indicate its recorded TGI; the molecule in question is "CSc1nc(CO)c(CO)n1C"
A) > 100 µM

----------
# TGI per entry
Tested on: CAKI-1 renal
Experiment: NCI tumour cell line growth inhibition, 48 h
Just the number please, in µM, no unit attached.

Q) Output reported TGI of the compound "CC(C)(Oc1ccc(Cl)cc1)C(=O)N(C(=O)N1CCCCC1)c1ccccc1" on CAKI-1 renal.
A) 29.9

Q) Give CAKI-1 renal TGI for the following compound: "C/C=C(/C)C(=O)O[C@H]1[C@H]2[C@@H]([C@@H](OC(C)=O)[C@H](C)C(=O)[C@@]34C[C@@H](C)C(=O)[C@]3(/C=C(\C)[C@H]1OC(C)=O)O4)C2(C)C"
A) 10

Q) Enter measured TGI, system CAKI-1 renal, for the compound shown: "C=CC(=O)NC(N)=NC#N"
A) 361

Q) Determine reported TGI for "CCOC(=O)Cc1nnc2n(-c3ccccc3)c(=O)c3ccccc3n12" ; test system: CAKI-1 renal.
A) 43.3

----------
Test system: U251 CNS
Assay: NCI tumour cell line growth inhibition, 48 h
Collected TGI values appear next to each entry.

Q) For the compound CCOC(=O)C1=C(C)NC(=O)NC1CN1C(=O)c2ccccc2C1=O (stereo not given) , give its reported TGI.
A) > 100 µM

Q) Identify the reported TGI for the following entry. "Nc1ccc(O)c2c1C(=O)c1c(N)ccc(O)c1C2=O"
A) > 100 µM

Q) Supply measured TGI of CCCCCCCCCCCCCCCCCCNc1ccn(C2OC(CO)C(OP(=O)(O)OCC(O)COP(=O)(O)OCC3OC(n4cc(F)c(NCCCCCCCCCCCCCCCCCC)nc4=O)CC3O)C2O)c(=O)n1 (stereo not given) in your reply.
A) > 50 µM

Q) Please look at this compound and report its TGI: "O=[N+]([O-])c1ccc(N/N=C2/CC3=C2CCCCCCCCCC3)c([N+](=O)[O-])c1"
A) > 100 µM

Q) Retrieve TGI measured for CC12CCC(=O)N1c1cncnc1N2 (stereo not given) and print it.
A) > 10 µM

----------
# TGI listing for each entry below
System: UACC-257 melanoma
Assay: NCI tumour cell line growth inhibition, 48 h

Known results for compounds:
CC(NCc1c(O)ccc2ccc(=O)oc12)C(=O)O (centres undefined) ... > 100 µM
CCOc1ccc(/C=C/c2cc(OC)c(OC)c(OC)c2)cc1 ... > 100 µM
CCC1C(C(=O)Nc2ccccc2C)=C(C)NC(C)=C1c1ccccc1C (centres undefined) ... > 100 µM

Note: attention shifts to another entry.
Q) Report measured TGI; entry is "C[Si](C)(C)c1ccc(-c2c3ccc(-c4cc(Br)cc(Br)c4)nc3nc3nc(-c4cc(Br)cc(Br)c4)ccc23)cc1"
A) > 100 µM

----------
System: UACC-62 melanoma
Assay: NCI tumour cell line growth inhibition, 48 h
# Lookup of reported TGI keyed by entry

Consider the worked cases shown below.
O=C(CSCC(=O)N/N=C/c1ccccc1)N/N=C\c1ccccc1 ... > 100 µM
OCC(O)CNc1ncnc2ccccc12 (centres undefined) ... > 100 µM
CCCCNS(=O)(=O)c1n[nH]c(=O)[nH]c1=O ... > 100 µM
OCC[N+]12CCCN1CCC2 ... > 100 µM
O=C(NC(Cc1ccc(Br)cc1)C(=O)O)c1ccc(I)cc1 (centres undefined) ... > 100 µM
NS(=O)(=O)c1ccc(NC(=O)Cc2nc3ccccc3s2)cc1 ... 29.4 µM
Oc1ccc2c3c1OC1c4[nH]ncc4C[C@H]4[C@@H](C2)N(CC2CC2)CC[C@]314 (some centres undefined) ... > 100 µM
O=C(c1ccc(C(F)(F)F)c(Cl)c1)N(Cc1ccc(Cl)cc1)c1ccc(-c2cc(C(F)(F)F)[nH]n2)c(O)c1 ... 1.97 µM
Cc1c2c(nc3ccccc13)C(=O)c1cccnc1C2=O ... 10.1 µM
COc1cc(/C=N/c2nc3cc4sc(/N=C/c5cc(OC)c(OC)c(OC)c5)nc4cc3s2)cc(OC)c1OC ... > 100 µM

Q) Report TGI on UACC-62 melanoma for this entry: "N#CC(C#N)=C/C=C/c1c(Cl)cccc1Cl"
A) 2.91 µM

Q) Find TGI for C=C1C(=O)O[C@H]2[C@H](OC(C)=O)[C@@H](C)CCCC3(C)OC3CCC3(CO3)[C@H](O)C[C@@H]12 (some centres undefined) on UACC-62 melanoma and write it down.
A) 24.1 µM

----------
Tested on: HCT-15 colon
Assay: NCI tumour cell line growth inhibition, 48 h
Property name: TGI

Below are worked cases with known answers.
CCOC(=O)CCC(C(=O)OCC)n1nc2ccc(Nc3c(C)[n+]([O-])c4cc(F)c(OCC)cc4[n+]3[O-])cc2n1 (configuration not stated) ... > 100 µM
CC1(C)N=C(N)N=C(N)N1c1ccc(OCCCNC(=O)Nc2cccc(S(=O)(=O)F)c2)c(Cl)c1 ... > 100 µM
CCc1cnn2c(NCc3ccc[n+]([O-])c3)cc(N3CCCC[C@H]3CCO)nc12 ... > 35 µM
O=C(CSCC(=O)N/N=C/c1ccccc1)N/N=C\c1ccccc1 ... > 100 µM
CC(C)(C)CC(C)(C)c1ccc(O)c(Cc2ccc(Cl)cc2Cl)c1 ... 3.18 µM

Q) For the compound "COc1ccc2c(c1)-c1c(c3cc(OC)ccc3n1CCCN(C)C)CC2" , report TGI.
A) 32.1 µM

Q) Supply recorded TGI for COc1cc2cc(C(=O)N3CC(CCl)c4ccc([N+](=O)[O-])cc43)[nH]c2c(OC)c1OC (configuration not stated) here.
A) > 100 µM

Q) // Input: "COC(=O)c1ccc(/C=C(\c2ccc([N+](=O)[O-])o2)S(=O)(=O)c2ccc(NC(C)=O)cc2)o1" . Output its TGI only.
A) 6.83 µM

Q) Please report TGI for the following compound: "Oc1ccc2ccccc2c1N=Nc1cc(Cl)ccc1Cl"
A) > 50 µM

Q) Give recorded TGI. Cc1cc(=O)oc2c(CNC(CO)C(=O)O)c(O)ccc12 (configuration not stated)
A) > 100 µM

Q) Consider the compound "C[C@@H](NS(=O)(=O)c1ccc(NC(=O)c2ccccc2)cc1)C(=O)O" . State its measured TGI.
A) > 100 µM

Q) Could you please provide reported TGI for CC(=O)OCC1OC(c2c(OC(C)=O)cc(C)c3c(=O)cc(/C(C(C)=O)=C(\C)O)oc23)C(OC(C)=O)C(OC(C)=O)C1OC(C)=O (configuration not stated) ? Thanks!
A) > 100 µM

Q) Identify TGI associated with the compound "O=C(O)c1ccccc1CC1Cc2cc3c(cc2C1)CCC3"
A) > 100 µM

Q) Look up and state reported TGI for "O=C1Cc2nc(CO)c(CO)c(CO)c2CO1"
A) > 100 µM

Q) Retrieve TGI measured for "CCCCCCn1c(SC)nc(COC(=O)NC)c1COC(=O)NC" and print it.
A) > 100 µM

Q) Hello, please tell me recorded TGI for this one: "O/N=C(/CC(O)(C(F)(F)F)C(F)(F)F)c1ccccc1"
A) > 10 µM

Q) Please look at this compound and report its TGI: "COC(=O)[C@@]1(C)C(=O)CC[C@@H]1C=O"
A) > 100 µM
